- TEST SYSTEM: Urease (Canavalia ensiformis)
- Sequence (P07374 whole entry): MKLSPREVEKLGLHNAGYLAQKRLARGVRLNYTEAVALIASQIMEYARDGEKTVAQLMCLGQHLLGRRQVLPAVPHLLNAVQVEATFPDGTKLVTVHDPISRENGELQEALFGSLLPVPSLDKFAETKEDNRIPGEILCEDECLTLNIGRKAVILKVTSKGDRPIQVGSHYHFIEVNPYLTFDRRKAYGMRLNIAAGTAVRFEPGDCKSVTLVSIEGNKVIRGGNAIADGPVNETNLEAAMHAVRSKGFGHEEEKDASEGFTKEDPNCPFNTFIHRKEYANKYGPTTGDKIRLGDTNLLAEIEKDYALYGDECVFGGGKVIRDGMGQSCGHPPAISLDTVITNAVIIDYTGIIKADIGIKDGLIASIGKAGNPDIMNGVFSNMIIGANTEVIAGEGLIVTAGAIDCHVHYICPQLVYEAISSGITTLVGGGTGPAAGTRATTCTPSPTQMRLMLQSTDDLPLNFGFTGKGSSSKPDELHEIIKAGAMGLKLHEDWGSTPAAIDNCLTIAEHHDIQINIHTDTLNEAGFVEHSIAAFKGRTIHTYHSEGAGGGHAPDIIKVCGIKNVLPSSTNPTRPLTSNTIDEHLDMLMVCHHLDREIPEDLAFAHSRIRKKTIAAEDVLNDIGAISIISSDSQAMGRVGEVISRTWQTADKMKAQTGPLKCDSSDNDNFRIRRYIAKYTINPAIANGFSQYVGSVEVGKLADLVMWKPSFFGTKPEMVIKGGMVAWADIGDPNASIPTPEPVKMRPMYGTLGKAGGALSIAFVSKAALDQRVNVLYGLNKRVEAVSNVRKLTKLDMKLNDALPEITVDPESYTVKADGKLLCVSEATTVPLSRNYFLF
- ASSAY PROCEDURE: Inhibition of jack beans urease assessed as hydrolysis of urea into ammonia at 0.5 mM preincubated for 10 mins followed by urea addition measured after 10 mins by Berthelot assay
Please go through the items and note down their inhibition.
Your answer is read as %, so omit the unit and give the number.

For Brc1ccc(-c2[nH]c3ccccc3c2-c2nc(-c3ccccc3)c(-c3ccccc3)n2-c2ccc(Br)cc2)cc1 , what is its reported inhibition?
87.8

Cool, now Clc1ccc(-n2c(-c3c(-c4ccccc4)[nH]c4ccc(Br)cc34)nc(-c3ccccc3)c2-c2ccccc2)cc1
87.8

Cool, now Fc1ccc(-n2c(-c3c(-c4ccc(C(F)(F)F)cc4)[nH]c4ccccc34)nc(-c3ccccc3)c2-c2ccccc2)cc1
85.2

Cool, now FC(F)(F)c1ccc(-c2[nH]c3ccccc3c2-c2nc(-c3ccccc3)c(-c3ccccc3)n2-c2ccc(Cl)cc2)cc1
70.3

Cool, now Fc1ccc(-n2c(-c3c(-c4ccc(Cl)cc4)[nH]c4ccccc34)nc(-c3ccccc3)c2-c2ccccc2)cc1
85.6

Cool, now Brc1ccc(-c2[nH]c3ccccc3c2-c2nc(-c3ccccc3)c(-c3ccccc3)n2-c2ccccc2)cc1
89.4

Cool, now Brc1ccc(-n2c(-c3c(-c4ccccc4)[nH]c4ccc(Br)cc34)nc(-c3ccccc3)c2-c2ccccc2)cc1
93.2

Cool, now COc1ccc(-n2c(-c3c(-c4ccccc4)[nH]c4ccc(Br)cc34)nc(-c3ccccc3)c2-c2ccccc2)cc1
88.7

Cool, now COc1ccc(-n2c(-c3c(-c4ccc(Br)cc4)[nH]c4ccccc34)nc(-c3ccccc3)c2-c2ccccc2)cc1
85.2

Cool, now Cc1ccc(-n2c(-c3c(-c4ccc(C(F)(F)F)cc4)[nH]c4ccccc34)nc(-c3ccccc3)c2-c2ccccc2)cc1
79.7

Cool, now Fc1ccc(-n2c(-c3c(-c4ccc(Br)cc4)[nH]c4ccccc34)nc(-c3ccccc3)c2-c2ccccc2)cc1
86.7

Cool, now Clc1ccc(-c2[nH]c3ccccc3c2-c2nc(-c3ccccc3)c(-c3ccccc3)n2-c2ccccc2)cc1
80.3

###

- Test system: Glycine max
- ASSAY PROCEDURE: Inhibition of soybean LOX using linoleic acid as substrate at 0.5 mM preincubated for 10 mins followed by substrate addition measured after 6 mins by spectrophotometric analysis
Please go through the items and note down their inhibition.
# output: number + unit

For FC(F)(F)c1ccc(-c2[nH]c3ccccc3c2-c2nc(-c3ccccc3)c(-c3ccccc3)n2-c2ccc(Cl)cc2)cc1 , what is its reported inhibition?
62.1%

Cool, now COc1ccc(-n2c(-c3c(-c4ccc(Br)cc4)[nH]c4ccccc34)nc(-c3ccccc3)c2-c2ccccc2)cc1
61.7%

Cool, now Fc1ccc(-n2c(-c3c(-c4ccc(C(F)(F)F)cc4)[nH]c4ccccc34)nc(-c3ccccc3)c2-c2ccccc2)cc1
80.2%

Cool, now Brc1ccc(-c2[nH]c3ccccc3c2-c2nc(-c3ccccc3)c(-c3ccccc3)n2-c2ccccc2)cc1
59.3%

###

- TEST SYSTEM: Urease (Canavalia ensiformis)
- ASSAY PROCEDURE: Inhibition of jack beans urease assessed as hydrolysis of urea into ammonia preincubated for 10 mins followed by urea addition measured after 10 mins by Berthelot assay
READOUT LABEL: IC50 (µM)
Your answer is read as µM, so omit the unit and give the number.

For Brc1ccc(-c2[nH]c3ccccc3c2-c2nc(-c3ccccc3)c(-c3ccccc3)n2-c2ccccc2)cc1 , what is its reported IC50?
4.81

Cool, now Fc1ccc(-n2c(-c3c(-c4ccc(Br)cc4)[nH]c4ccccc34)nc(-c3ccccc3)c2-c2ccccc2)cc1
12.1

Cool, now COc1ccc(-n2c(-c3c(-c4ccc(Br)cc4)[nH]c4ccccc34)nc(-c3ccccc3)c2-c2ccccc2)cc1
29.1

Cool, now Cc1ccc(-n2c(-c3c(-c4ccc(C(F)(F)F)cc4)[nH]c4ccccc34)nc(-c3ccccc3)c2-c2ccccc2)cc1
0.12
